Sourced from patent US20220213126A1

Answer each item with its documented T½.
- runDescription: Pharmacokinetics of BC-4 and BC-5 in mouse plasma and brain
- Type: in vivo
- conditionNotes: Plasma, Balb/c mice, single oral dose 5 mg/kg

CC=C(c1ccc(OC)cc1)C(CC)c1cc(OC)cc(B(O)O)c1 (racemic); 94.5 min

Kindly consider the entry below.
Summary for this compound, CCC(=C(c1ccccc1)c1ccc(OC)cc1)c1cc(OC)cc(B(O)O)c1 : T½ is 251 min

###

- runDescription: Plasma vs tumor PK in MDA-MB-231 xenograft mice
- Format: in vivo, athymic nude mice
- conditionNotes: athymic nude, mouse; Plasma, oral 75 mg/kg
quantityKind: Tmax

Record COc1ccc(/C=C/c2cc(OC)cc(B(O)O)c2)cc1 [VMY-BC-1] , field Tmax: 30 min

###

- runDescription: Brain pharmacokinetics in mice
- Assay type: in vivo
- conditionNotes: mouse, brain and plasma, oral; 25 mg/kg single dose P.O., 0.00 h; read-out: Brain to Plasma Ratio
quantityKind: Kp at 0 h
One number for each entry.

// Kp at 0 h value for COc1ccc(/C=C/c2cc(OC)cc(B(O)O)c2)cc1 [VMY-BC-1] : 0

###

- runDescription: Brain pharmacokinetics in mice
- Type: in vivo
- conditionNotes: 25 mg/kg single dose P.O., 12.00 h
quantityKind: Mean Brain Concentration (ng/g)
Answers are plain numbers, in ng/g.

Mean Brain Concentration in this record for COc1ccc(/C=C/c2cc(OC)cc(B(O)O)c2)cc1 [VMY-BC-1] : 0

###

- runDescription: Brain pharmacokinetics in mice
- Assay type: in vivo
- conditionNotes: mouse, brain and plasma, oral; 25 mg/kg single dose P.O., 12.00 h; read-out: Brain to Plasma Ratio
quantityKind: Kp at 12 h
Numbers only.

According to the records, this compound COc1ccc(/C=C/c2cc(OC)cc(B(O)O)c2)cc1 [VMY-BC-1] displays Kp at 12 h of 0

###

- runDescription: Brain pharmacokinetics in mice
- Format: in vivo
- conditionNotes: 25 mg/kg single dose P.O., 0.00 h
quantityKind: Mean Plasma Concentration (ng/mL)
Give bare numbers, in ng/mL.

get_value(item= COc1ccc(/C=C/c2cc(OC)cc(B(O)O)c2)cc1 , readout=Mean Plasma Concentration) returns 0

###

- runDescription: Pharmacokinetics of BC-4 and BC-5 in mouse plasma and brain
- Assay type: in vivo
- conditionNotes: mouse; Brain, Balb/c mice, single oral dose 5 mg/kg; read-out: Tmax (converted)
quantityKind: Tmax (min)
One number for each entry, in min.

Short answer for COc1ccc(/C=C/c2cc(OC)cc(B(O)O)c2)cc1 : Tmax was 30

###

- runDescription: Pharmacokinetics of BC-4 and BC-5 in mouse plasma and brain
- Assay type: in vivo
- conditionNotes: mouse, plasma; Balb/c mice, single oral dose 5 mg/kg, 30 min; read-out: Plasma level, Mean (4) ± SE
quantityKind: concentration at 30 min
Hi, when you answer, please include the unit after the number. Thanks!

In plain terms, COc1ccc(/C=C/c2cc(OC)cc(B(O)O)c2)cc1 [VMY-BC-1] has a documented concentration at 30 min of 578 ng/mL

###

- targetDesc: UniProt:P11712
- Sequence (P11712 whole entry): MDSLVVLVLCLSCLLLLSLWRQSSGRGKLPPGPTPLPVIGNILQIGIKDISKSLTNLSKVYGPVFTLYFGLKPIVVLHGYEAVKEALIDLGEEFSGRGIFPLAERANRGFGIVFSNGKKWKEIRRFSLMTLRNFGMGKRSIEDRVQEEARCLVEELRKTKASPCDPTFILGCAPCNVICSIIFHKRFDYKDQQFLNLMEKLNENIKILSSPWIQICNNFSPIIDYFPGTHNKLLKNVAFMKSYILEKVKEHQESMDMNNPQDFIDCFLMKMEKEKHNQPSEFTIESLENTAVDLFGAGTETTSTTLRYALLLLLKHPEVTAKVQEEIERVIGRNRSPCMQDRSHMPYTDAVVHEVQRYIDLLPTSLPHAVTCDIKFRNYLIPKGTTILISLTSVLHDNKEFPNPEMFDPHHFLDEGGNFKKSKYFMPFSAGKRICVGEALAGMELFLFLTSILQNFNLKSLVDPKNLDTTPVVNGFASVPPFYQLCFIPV
quantityKind: IC50 (µM)
Answers are plain numbers, in µM.

Input COc1ccc(/C=C/c2cc(OC)cc(B(O)O)c2)cc1 . Output IC50: 78.4

###

- runDescription: Brain pharmacokinetics in mice
- Assay type: in vivo
- conditionNotes: mouse; Brain, oral 25 mg/kg
quantityKind: half-life (h)
Numbers only, in h.

Sample COc1ccc(/C=C/c2cc(OC)cc(B(O)O)c2)cc1 [VMY-BC-1] ; half-life observed: 1.32

###

- runDescription: Brain pharmacokinetics in mice
- Assay type: in vivo
- conditionNotes: mouse; Plasma, oral 25 mg/kg
quantityKind: Tmax
Number first, unit second: that is the form wanted.

So, COc1ccc(/C=C/c2cc(OC)cc(B(O)O)c2)cc1 ? Its Tmax was 1 h

###

- runDescription: Brain pharmacokinetics in mice
- Type: in vivo
- conditionNotes: mouse, brain and plasma, po; 25 mg/kg single dose P.O., 0.50 h; read-out: Brain to Plasma Ratio
quantityKind: Kp at 0.5 h
Answers are plain numbers.

Measured Kp at 0.5 h of COc1ccc(/C=C/c2cc(OC)cc(B(O)O)c2)cc1 : 7.59

###

- runDescription: Brain pharmacokinetics in mice
- Format: in vivo
- conditionNotes: mouse, brain and plasma, po; 25 mg/kg p.o.; read-out: Cmax relative to plasma
quantityKind: Kp
Answers are plain numbers.

GET /value?item= COc1ccc(/C=C/c2cc(OC)cc(B(O)O)c2)cc1 [VMY-BC-1] &field=Kp returns 7

###

- runDescription: Brain pharmacokinetics in mice
- Type: in vivo
- conditionNotes: mouse; Plasma, oral 25 mg/kg
quantityKind: MRT last (h)
Answers are plain numbers, in h.

Entry under test: COc1ccc(/C=C/c2cc(OC)cc(B(O)O)c2)cc1 . Its MRT last was 1.96

###

- runDescription: Brain pharmacokinetics in mice
- Type: in vivo
- conditionNotes: 25 mg/kg single dose P.O., 0.00 h
- Description: Pharmacokinetics of VMY-BC-1 in the brain were assessed in mice administered 25 mg/kg VMY-BC-1 p.o. (Table 6). Free drug fraction in brain and plasma compartment was determined in vitro (Table 7). Brain to plasma (B/P) ratio was also determined in vivo (Table 8).
quantityKind: Mean Brain Concentration (ng/g)
Numbers only, in ng/g.

The reported Mean Brain Concentration of the compound COc1ccc(/C=C/c2cc(OC)cc(B(O)O)c2)cc1 was 0

###

- runDescription: Pharmacokinetics of BC-4 and BC-5 in mouse plasma and brain
- Type: in vivo
- conditionNotes: mouse; Plasma, Balb/c mice, single oral dose 5 mg/kg; read-out: Tmax (converted)
quantityKind: Tmax (min)
One number for each entry, in min.

// field: Tmax; key: COc1ccc(/C=C/c2cc(OC)cc(B(O)O)c2)cc1 ; value = 30

###

Would you kindly list Tmax for each of these compounds?
- runDescription: Pharmacokinetics of BC-2 and BC-3 in mouse plasma and brain
- Type: in vivo, mice
- conditionNotes: mouse, in vivo, po, 5 mg/kg, Tmax
Give bare numbers, in min.

CCOc1ccc(/C=C/c2cc(OC)cc(B(O)O)c2)cc1 [BC-2]; 30

Proceed to the following item.
Sure, the documented Tmax for COc1ccc(/C=C/c2cc(OC)cc(B(O)O)c2)cc1 [VMY-BC-1] is 30

###

- runDescription: Metabolic stability in human liver microsomes
- Format: in vitro ADME
- conditionNotes: human, human liver microsomes; read-out: Intrinsic clearance in human liver microsomes
quantityKind: microsomal CLint (µL/min/mg)
Numbers only, in µL/min/mg.

For this compound ( COc1ccc(/C=C/c2cc(OC)cc(B(O)O)c2)cc1 ), measured microsomal CLint is 43

###

- runDescription: LogD octanol-water
- Type: physicochemical
- conditionNotes: pH 7.4, read-out: LogD (octanol-water partition coefficient), pH 7.4
quantityKind: logD
Give bare numbers.

Reported logD for COc1ccc(/C=C/c2cc(OC)cc(B(O)O)c2)cc1 [VMY-BC-1] was 3.37

###

- runDescription: Pharmacokinetics of BC-4 and BC-5 in mouse plasma and brain
- Assay type: in vivo
- conditionNotes: mouse; Plasma, Balb/c mice, single oral dose 5 mg/kg; read-out: AUC(0-t) (converted)
quantityKind: AUC(0-t) (ng·h/mL)
Give bare numbers, in ng·h/mL.

The recorded AUC(0-t) for COc1ccc(/C=C/c2cc(OC)cc(B(O)O)c2)cc1 is 803

###

- runDescription: In vivo ADME/plasma pharmacokinetics in male CD1 mice
- conditionNotes: male, CD1, mouse, plasma; oral, dose not given; read-out: Mean maximum concentration (Cmax)
quantityKind: Cmax (ng/mL)
One number for each entry, in ng/mL.

Entry COc1ccc(/C=C/c2cc(OC)cc(B(O)O)c2)cc1 — recorded Cmax = 3060

###

- runDescription: Thermodynamic solubility
- Format: physicochemical
- conditionNotes: pH 7.4, aqueous buffer, thermodynamic from solid
quantityKind: solubility thermodynamic

The value of solubility thermodynamic measured for the compound COc1ccc(/C=C/c2cc(OC)cc(B(O)O)c2)cc1 [VMY-BC-1] turned out to be 0.31 µM

###

- targetDesc: CYP2C19 (Homo sapiens)
- Sequence (P33261 whole entry): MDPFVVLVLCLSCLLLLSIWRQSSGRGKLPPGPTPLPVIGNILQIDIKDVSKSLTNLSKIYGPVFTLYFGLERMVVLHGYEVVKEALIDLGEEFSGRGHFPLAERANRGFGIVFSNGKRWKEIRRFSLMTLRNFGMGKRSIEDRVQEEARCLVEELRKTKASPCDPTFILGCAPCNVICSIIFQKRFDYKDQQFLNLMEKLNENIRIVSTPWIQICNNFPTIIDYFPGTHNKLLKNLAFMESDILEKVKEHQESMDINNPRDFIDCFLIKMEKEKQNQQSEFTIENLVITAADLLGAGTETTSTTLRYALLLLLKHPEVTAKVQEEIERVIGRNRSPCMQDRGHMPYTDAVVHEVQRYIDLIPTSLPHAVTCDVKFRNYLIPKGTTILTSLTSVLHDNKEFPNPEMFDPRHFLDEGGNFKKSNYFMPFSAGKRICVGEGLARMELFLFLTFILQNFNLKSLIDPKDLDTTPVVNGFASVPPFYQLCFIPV
quantityKind: IC50 (µM)
Give bare numbers, in µM.

The recorded IC50 for entry COc1ccc(/C=C/c2cc(OC)cc(B(O)O)c2)cc1 equals 95.7

###

- runDescription: Mouse brain homogenate binding (in vitro binding study)
- Format: in vitro ADME
- conditionNotes: mouse, mouse brain homogenate
quantityKind: recovery (%)
One number for each entry, in %.

Given item COc1ccc(/C=C/c2cc(OC)cc(B(O)O)c2)cc1 [VMY-BC-1] , the value recorded as its recovery is 108

###

- runDescription: Pharmacokinetics of BC-4 and BC-5 in mouse plasma and brain
- Assay type: in vivo
- conditionNotes: mouse, plasma; Balb/c mice, single oral dose 5 mg/kg, 180 min; read-out: Plasma level, Mean (4) ± SE
quantityKind: concentration at 180 min (ng/mL)
Numbers only, in ng/mL.

Entry under test: COc1ccc(/C=C/c2cc(OC)cc(B(O)O)c2)cc1 [VMY-BC-1] . Its concentration at 180 min was 60
